System: HBV genotype D
Assay comment: HBV replication inhibition assay in HepDES19 cells
Assay type: cell-based, hepatitis B virus
Experimental conditions: read-out: HBV replication inhibition (EC50), 3 days, plus-polarity DNA strand, average ± SD
pEC50: −log10 of the molar value.
Experimental readout: pEC50

• O=C(NCc1ccc(F)cc1)C1C(=O)N(O)C(=O)c2cc(Cl)ccc21 (stereo not drawn) [Compound 87] = 5.35
• O=C(Nc1ccc2c(c1)C(=O)N(O)C(=O)C2C(=O)NCc1ccc(F)cc1)c1ccccc1 (stereo not drawn) [Compound 86] = 5.85
• COc1ccc2c(c1)C(=O)N(O)C(=O)C2C(=O)NCc1ccc(F)cc1 (stereo not drawn) [Compound 88] = 5.60

* * *

System: HepDES19 cells
Experimental conditions: read-out: Toxicity in HepDES19, NR (CC50); 72 hours; average ± SD
Experimental readout: CC50

• COc1ccc2c(c1)C(=O)N(O)C(=O)C2C(=O)NCc1ccc(F)cc1 (stereo not shown) = 26 µM
• O=C(Nc1ccc2c(c1)C(=O)N(O)C(=O)C2C(=O)NCc1ccc(F)cc1)c1ccccc1 (stereo not shown) = 52 µM
• O=C(NCc1ccc(F)cc1)C1C(=O)N(O)C(=O)c2cc(Cl)ccc21 (stereo not shown) = 24 µM
• CC(=Nc1ccccc1N)c1c(C)cc(=O)n(O)c1O = 13 µM

* * *

Tested on: HepDES19 cells
Experimental conditions: read-out: Toxicity in HepDES19, MTS (CC50); 72 hours; average ± SD
Experimental readout: CC50 (µM)

• O=C(Nc1ccc2c(c1)C(=O)N(O)C(=O)C2C(=O)NCc1ccc(F)cc1)c1ccccc1 (stereo not shown) = 99
• COc1ccc2c(c1)C(=O)N(O)C(=O)C2C(=O)NCc1ccc(F)cc1 (stereo not shown) = 40
• O=C(NCc1ccc(F)cc1)C1C(=O)N(O)C(=O)c2cc(Cl)ccc21 (stereo not shown) = 37
• CC(=Nc1ccccc1N)c1c(C)cc(=O)n(O)c1O = 15

* * *

System: HepDES19 cells
Experimental conditions: read-out: Toxicity in HepDES19, LDH (CC50); 72 hours; average ± SD
Experimental readout: CC50 (µM)

• COc1ccc2c(c1)C(=O)N(O)C(=O)C2C(=O)NCc1ccc(F)cc1 (stereo not shown) = 57
• O=C(NCc1ccc(F)cc1)C1C(=O)N(O)C(=O)c2cc(Cl)ccc21 (stereo not shown) = 52
• CC(=Nc1ccccc1N)c1c(C)cc(=O)n(O)c1O = 12

Each recorded value in this set is attributed to paper PMC5520537.
